experiment: protein stability index of a GFP-peptide fusion (yeast GPS) (PSI 1-4); higher = more stable; sorted into four equal gates, so the index is relative within each strain; conditions: san1∆

seq | protein stability index
AKPFQVTKEYFQDVYDL [FAS1] | 2.4
SEENIGSGLLKLSEIIL [SWI1] | 2.92
ASLGIGLAAMGSANIEV [RPN2] | 1.74
SKFSKQQAKGAFQKVAA [RPL24A] | 2.9
SRTFDKYSKLVDNVTLE [SRP72] | 3.44
ETESSVSNNEANTPSIP [SWI3] | 3.11
ILDTSQSESRQKRQLHD [SNU114] | 1.72
TSLKCLVNRKPIPFEFQ [SNF2] | 2.13
ISMLVTQLQRGGTSDMN [CSI1] | 2.5
ASISLPNHIPSVNPSNK [SWP82] | 3.01
SLAGFHKVQTKLTRELE [RPS7A] | 1.57
EYGKHDFKNEESLSEEH [MED8] | 3.1
PVLNLDKLWTLIPEDKR [RPL28] | 2.04
KSKLDQDSTSENVKIIN [RPN2] | 2.97
GKASLFAQGKRRYDRKQ [RPL42A] | 3.4
ESYNQNDWKLETERLIS [SIN4] | 3.29
KPHGLAARVDIGQIIFS [RPL10] | 1.72
ANDFQLTIVTCKQFPKL [SRB8] | 1.82
RDGGLRLGEMERDCVIA [RET1] | 2.54
IITSGRDTREVLEERER [ARP9] | 3.52
SVDMSALKDPQTDADRV [RIP1] | 3.2
ELALIEEAYDNPHDTLN [PRP8] | 3.51
TKPFENVEKYPTFVEFI [SNU114] | 2.87
VKLLKTTVPIVSKKRQK [POP3] | 2.87
RLILLLNHRNKNQHRAA [RMP1] | 1.34
IDEHIDLGIKYDPSIGI [RPL11A] | 2.91
DGKEDVEKGTPLGKILL [SME1] | 3.53
ILHGSKSQEQREHSLQL [PRP28] | 2.92
DRYGNRYFWLDHNGVPF [ITC1] | 2.92
GSAITGPVGKECADLWP [RPL23A] | 2.83
WKDFTVEIAFLFRAIYL [YCG1] | 2.48
GEHISAIVPGQSISGTL [SWP82] | 2.97
AAIHAKRVTIQKKDIKL [HHT1] | 3.14
AAIKDLDDFGEEELFEV [RRP43] | 2.17
QQQQTSPPPQTHQSPPP [SNF5] | 2.88
GFGRKGKAKGDIPGVRF [RPS23A] | 3.42
NNNNAPIIIYGTENTER [YOR098C/NUP1] | 2.83
NSVRNSLLLAHFFSKSC [NUT1] | 1.19
ILSINAIDYEPEYEKAM [SMC1] | 3.05
KDTPFTIYDGEAVAKYI [PRE5] | 3.13
VRTNRFDIIEESFKGLQ [ECM29] | 2.18
PPAYALLGSCQTDGMGL [RPC25] | 2.22
GKTLAFVIPILIKMSRS [PRP28] | 1.22
RSLRATAEERVGRRAAN [RPL15A] | 3.03
VITLLNNSSITLRCSVV [YCS4] | 1.21
IEYCSAQPSVQSSFAGT [FAS2] | 2.77
IKELLNITKNLKTFNGS [POP4] | 2.46
IVVATEHNPSAHTASVG [COR1] | 2.27
MVVNGPIPDARNAALRA [SCL1] | 2.36
ELPKFILSDSPLELSAP [DIS3] | 2.85
SPELKAELRPLQFKSIR [RPS7A] | 2.61
GDMTNSDAQSNLGSNVR [REC8] | 2.87
VRQLYKGKKYQPKDLRA [RPL35A] | 2.59
KMEKKKSSSLSLESFMK [SNM1] | 2.93
SQASSDLGETFRGIIRS [CSL4] | 3.3
PAGTSLFGNNAGNTTTG [YGL172W/NUP49] | 2.88
NCKKKKKRKKKNKSAID [RMP1] | 2.79
GILGNKAQAKMDKRAKT [RPL8B] | 3.4
KPTEVNDSENNSSEEDK [ITC1] | 3.17
QAIITERLVEFSNVNEL [YIL149C/MLP2] | 3.58
FQIEADFIGHNSNINTL [ASC1] | 2.35

Recorded values, source the supplement of paper PMC9732359.
